Source of measurements: patent EP0638079B1

- System: DBA/1 mice
- MEASUREMENT DESCRIPTION: Type II collagen arthritis mouse model (visual inflammation, rear paw swelling)
- Format: in vivo
- TEST CONTEXT: Table IIB; 30 day measurement (first value); caliper
Please respond with reported Avg. thickness of rear paws (mm) over days 30-44, Treated for every item in the list.
Reply numerically in mm, unit not repeated.

Output Avg. thickness of rear paws (mm) over days 30-44, Treated of Cc1c(CNc2ccc(C(=O)N[C@@H](CCC(=O)O)C(=O)O)s2)cnc2nc(N)nc(N)c12
2.19

Specify reported Avg. thickness of rear paws (mm) over days 30-44, Treated for the compound shown: CCc1c(CN(C)c2ccc(C(=O)N[C@@H](CCC(=O)O)C(=O)O)s2)cnc2nc(N)nc(N)c12
2.13

Give the reported value of Avg. thickness of rear paws (mm) over days 30-44, Treated for this record: CN(Cc1cnc2nc(N)nc(N)c2n1)c1ccc(C(=O)N[C@@H](CCC(=O)O)C(=O)O)cc1 [MTX, methotrexate, reference compound]
2.128

Fill in reported Avg. thickness of rear paws (mm) over days 30-44, Treated for this entry: Cc1c(CN(C)c2ccc(C(=O)N[C@@H](CCC(=O)O)C(=O)O)s2)cnc2nc(N)nc(N)c12
2.13

----------
- Test system: DBA/1 mice
- MEASUREMENT DESCRIPTION: Type II collagen arthritis mouse model (visual inflammation, rear paw swelling)
- Type: in vivo
- TEST CONTEXT: Table IIB; affected mice/mice in group; Day 30; dose per compound as in Dose column
Could you please report measured No mice affected on day indicated (visual evidence of inflammation), Day 30 for the items listed next?

Determine from records and report No mice affected on day indicated (visual evidence of inflammation), Day 30 for CCc1c(CN(C)c2ccc(C(=O)N[C@@H](CCC(=O)O)C(=O)O)s2)cnc2nc(N)nc(N)c12
2/8

Complete the entry with No mice affected on day indicated (visual evidence of inflammation), Day 30 for CN(Cc1cnc2nc(N)nc(N)c2n1)c1ccc(C(=O)N[C@@H](CCC(=O)O)C(=O)O)cc1 [MTX, methotrexate, reference compound]
1/22

Consider the molecule Cc1c(CNc2ccc(C(=O)N[C@@H](CCC(=O)O)C(=O)O)s2)cnc2nc(N)nc(N)c12 . State its measured No mice affected on day indicated (visual evidence of inflammation), Day 30.
0/5

Identify measured No mice affected on day indicated (visual evidence of inflammation), Day 30 associated with Cc1c(CN(C)c2ccc(C(=O)N[C@@H](CCC(=O)O)C(=O)O)s2)cnc2nc(N)nc(N)c12
0/8

----------
For each of the compounds below, state its No Mice on day indicated (visual evidence of inflammation), Day 30.
- Test system: DBA/1 mice
- MEASUREMENT DESCRIPTION: Type II collagen arthritis mouse model (visual inflammation, rear paw swelling)
- Type: in vivo
- TEST CONTEXT: Table IIA; affected mice/mice in group; Day 30; dose (mg/kg) per compound as in Dose column

Provide No Mice on day indicated (visual evidence of inflammation), Day 30, tested on DBA/1 mice, for CN(Cc1cnc2nc(N)nc(N)c2n1)c1ccc(C(=O)N[C@@H](CCC(=O)O)C(=O)O)cc1 [MTX, methotrexate, reference compound] .
1/22

Identify measured No Mice on day indicated (visual evidence of inflammation), Day 30 obtained with DBA/1 mice for C=CCN(Cc1cnc2nc(N)nc(N)c2c1C)c1ccc(C(=O)NC(CCC(=O)O)C(=O)O)cc1 (centres unmarked) [5-Me-10-Allyl (5-Me-10-Allyl-5-DA)] .
0/8

Using DBA/1 mice as the test system, report measured No Mice on day indicated (visual evidence of inflammation), Day 30 of C#CCN(Cc1cnc2nc(N)nc(N)c2c1)c1ccc(C(=O)NC(CCC(=O)O)C(=O)O)cc1 (centres unmarked) [5-H-10-Propargyl (10-Prgl-5-DA), 10-propargyl-5-deazaaminopterin] .
3/8

Report the value of No Mice on day indicated (visual evidence of inflammation), Day 30 obtained on DBA/1 mice for C#CCN(Cc1cnc2nc(N)nc(N)c2c1C)c1ccc(C(=O)NC(CCC(=O)O)C(=O)O)cc1 (centres unmarked) [5-Me-10-Propargyl (5-Me-10-Prgl-5-DA), 10-propargyl-5-methyl-5-deazaaminopterin] .
3/8

Send back DBA/1 mice No Mice on day indicated (visual evidence of inflammation), Day 30 of Cc1c(CN(C)c2ccc(C(=O)NC(CCC(=O)O)C(=O)O)cc2)cnc2nc(N)nc(N)c12 (centres unmarked) [5-Me-10-Me (5-Me-5-DMTX), 5-methyl-5-deazamethotrexate] only.
1/8

Enter recorded No Mice on day indicated (visual evidence of inflammation), Day 30 with DBA/1 mice for CCCc1c(CNc2ccc(C(=O)N[C@@H](CCC(=O)O)C(=O)O)cc2)cnc2nc(N)nc(N)c12 [5-Pr-10-H (5-Pr-5-DA)] here.
0/7

State recorded No Mice on day indicated (visual evidence of inflammation), Day 30 with DBA/1 mice, entry CCc1c(CNc2ccc(C(=O)NC(CCC(=O)O)C(=O)O)cc2)cnc2nc(N)nc(N)c12 (centres unmarked) [5-Et-10-H (5-Et-5-DA)] , no comment.
2/8

Give reported No Mice on day indicated (visual evidence of inflammation), Day 30 for CCc1c(CN(C)c2ccc(C(=O)NC(CCC(=O)O)C(=O)O)cc2)cnc2nc(N)nc(N)c12 (centres unmarked) [5-Et-10-Me (5-Et-5-DMTX)] (DBA/1 mice)
0/7
